This collection of values is drawn from ChEMBL document CHEMBL2146467.

For each of the molecules below, state its MIC90.
test system: Mycobacterium tuberculosis; test: Antimycobacterial activity against isoniazid-,rifampin-,ethambutol-,streptomycin-,kanamycin-,ofloxacin-resistant Mycobacterium tuberculosis after 14 days; format: functional; conditions: 336 h
Write the number in µM without appending the unit.

Look up MIC90: `O=C(OCc1ccccc1)c1coc(-c2ccccc2)n1` 4.4

Param item: `O=C(OCc1ccccc1)c1csc(-c2ccccc2)n1` 16.9

Param item: `O=[N+]([O-])c1cn2c(n1)OC[C@@H](OCc1ccc(OC(F)(F)F)cc1)C2` 0.86
